B1: Hairpin Ribozyme (parent)
chain: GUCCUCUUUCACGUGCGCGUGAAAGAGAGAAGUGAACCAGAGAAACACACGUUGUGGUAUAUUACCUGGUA

- Variants of: B1
- method.notes: self-cleavage, relative activity (ratio to wild type); higher = more cleavage; co-transcriptional
quantity.measured: self-cleavage

variant_label="C4U G21A" quantity_measured=self-cleavage readout_value=0.389
variant_label="C6G A71U" quantity_measured=self-cleavage readout_value=0.409
variant_label="G25A A28C" quantity_measured=self-cleavage readout_value=0.394
variant_label="U62G A64C" quantity_measured=self-cleavage readout_value=0.2

All values here come from the RNAGym collection of RNA variant scans (doi:10.7554/elife.80360).
